Answer each item with its documented growth inhibition.
- assay-text: NCI Yeast Anticancer Drug Screen. Data for the rad14 strain (AID 159);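 note: 0% = growth of vehicle-treated control cultures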
- condition-notes: S. cerevisiae rad14 strain growth inhibition; at 11.0 µM; active compounds read high
About 79,000 compounds went through this panel and 15% of them were active in at least one assay; those are over-represented in the sample as a whole.
Give the number; % is assumed, so skip it.

Data request, read-out growth inhibition, for "O=C(Nc1cccc(C(F)(F)F)c1)Oc1ccc(Cl)cc1C(=O)c1ccccc1"
51

Data request, read-out growth inhibition, for "CCOC(=O)CNC(=O)c1[nH]cnc1/N=N/N(C)C"
1

Data request, read-out growth inhibition, for "Cc1cccc2c1N=C(C(F)(F)F)CC2=O"
0

Data request, read-out growth inhibition, for "Cc1ccc2occ/c(=N\Nc3ccccc3)c2c1"
-4

Data request, read-out growth inhibition, for "CC(=O)Oc1ccc(C(=O)c2ccccc2)c(O)c1"
-19

Data request, read-out growth inhibition, for "CCCCCCCCCCCc1nc(N)n[nH]1"
7

###

Answer each item with its documented growth inhibition.
- assay-text: NCI Yeast Anticancer Drug Screen. Data for the cln2 rad14 strain (AID 165);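 note: 0% = growth equal to vehicle treated cultures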
- condition-notes: S. cerevisiae cln2 rad14 strain, at 50.0 µM, active compounds read high
This is part of a sample that, as a whole, favours compounds with a hit. Of some 79,000 tested, about 15% had one in any assay.
Give the number; % is assumed, so skip it.

Data request, read-out growth inhibition, for "S=c1nc(Cl)cc2[nH]c(Cl)cn12"
76.6

Data request, read-out growth inhibition, for "COC(=O)c1cccc(C)c1C(=O)c1c(C)cc(C)cc1C"
25.2

Data request, read-out growth inhibition, for "Cc1onc(-c2ccccc2Cl)c1C1=N/C(=C/c2cc(Cl)cc(Cl)c2O)C(=O)O1"
71.5

Data request, read-out growth inhibition, for "CN(CC(=O)O)c1ccc(/C=C/c2ccnc3ccccc23)cc1"
-46.4

Data request, read-out growth inhibition, for CN(C)CC1CCCc2ccccc2C1=O (configuration not stated)
5.05

Data request, read-out growth inhibition, for "On1cnc(=S)c2[nH]cnc21"
1.85

Data request, read-out growth inhibition, for "CCCCCCCCCCCCCCCCCCNC(=S)/N=C\C1=C(O)c2ccccc2C1=O"
25.7

Data request, read-out growth inhibition, for "[N-]=[N+]=NC(c1ccccc1)(c1ccccc1)c1ccccc1"
80.5

Data request, read-out growth inhibition, for "C/C(=N\NC(=S)NC1CCCC1)c1ccccn1"
90.3

Data request, read-out growth inhibition, for "O=C(/C=C\c1ccc([N+](=O)[O-])o1)Nc1ccc(Cl)cc1"
35.1

Data request, read-out growth inhibition, for "COc1ccc(/C=C2\SC(=S)N(C=C3C(=O)NC(=S)NC3=O)C2=O)cc1OC"
37.6

Data request, read-out growth inhibition, for "COC(=O)c1n[nH]c(C)c1N=NN(C)CCC#N"
97.8

Data request, read-out growth inhibition, for "Nc1ccc(S(=O)(=O)Nc2ccc(Nc3c4ccccc4nc4ccccc34)cc2)cc1"
13.8

Data request, read-out growth inhibition, for CCCCCCCCCCCCCC(=O)OC(C)CCC1CCCO1 (configuration not stated)
37.1

Data request, read-out growth inhibition, for "N#Cc1sc2c(c1OC(=O)c1ccco1)c(=O)n(-c1ccccc1)c(=S)n2-c1ccccc1"
94

Data request, read-out growth inhibition, for O=C1C(Cl)=C(Cl)C(Cl)(Cl)C(Cl)C1(Cl)Cl (configuration not stated)
96.8

Data request, read-out growth inhibition, for "CCOC(=O)CNC(=O)c1[nH]cnc1/N=N/N(C)C"
90.5

Data request, read-out growth inhibition, for "CCc1[nH]nc(C(N)=O)c1N=NN(C)C"
21.1

Data request, read-out growth inhibition, for "CN(N=O)C(=O)N[C@@H](C=O)[C@@H](O)[C@H](O)[C@H](O)CO"
-1.1

Data request, read-out growth inhibition, for "CCCCC(=O)c1c(O)nc2sccn2c1=O"
53

Data request, read-out growth inhibition, for "CCCc1[nH]nc(C(N)=O)c1N=NN(C)C"
13.4

Data request, read-out growth inhibition, for "CCOC(=O)c1csc(Br)n1"
83.5

Data request, read-out growth inhibition, for "CC(=O)N1C(=O)/C(=C\C(=O)c2ccc([N+](=O)[O-])cc2)c2ccccc21"
84.5

Data request, read-out growth inhibition, for "Oc1ccc(C=Nc2ccccc2O)cc1"
1.55

Data request, read-out growth inhibition, for O=S1(=O)c2ccccc2N=C(c2ccccc2Cl)CC1c1ccc(F)cc1 (configuration not stated)
31.5

Data request, read-out growth inhibition, for "C=Cc1cnc([N+](=O)[O-])n1C"
90.2

Data request, read-out growth inhibition, for "COC(=O)CSc1nnc(CSc2ccc(Cl)cc2)n1-c1ccccc1"
44

Data request, read-out growth inhibition, for "O=C1C=CC(=Nc2ccccc2)c2ccccc21"
24.6

Data request, read-out growth inhibition, for "O=S(=O)(c1cc(Cl)ccc1O)c1cc(Cl)ccc1O"
98.9

Data request, read-out growth inhibition, for "N#CC(=C1C=CC(=NO)C=C1)c1ccccc1"
99.2

Data request, read-out growth inhibition, for "O=C1c2ccccc2C(=O)c2cc(S(=O)(=O)Nc3ccccc3)ccc21"
92.2

Data request, read-out growth inhibition, for N#CSC1CCCCNC1=O (configuration not stated)
52.5

Data request, read-out growth inhibition, for "CO[C@@]12[C@H](COC(N)=O)C3=C(C(=O)C(C)=C(N)C3=O)N1C[C@@H]1N[C@@H]12"
48.8

Data request, read-out growth inhibition, for "OCCNCCOc1ccc(/C(=C(/Cl)c2ccccc2)c2ccccc2)cc1"
93.2

Data request, read-out growth inhibition, for "Cc1cc(N=C2C=CC(=[N+](C)C)C=C2)c(N)cc1N"
39.7

Data request, read-out growth inhibition, for "O=C1C=CC(=O)N1c1ccc(N2C(=O)C=CC2=O)cc1"
92.3

Data request, read-out growth inhibition, for "Cc1c(-c2ccccc2)[nH]c2ccccc12"
92.3

Data request, read-out growth inhibition, for "COc1cc(NCc2ccc3nc(N)nc(N)c3c2C)cc(OC)c1OC"
-1.2

Data request, read-out growth inhibition, for COc1cc([C@@H]2c3cc4c(cc3[C@@H](OC3OC5COC(C)OC5C(O)C3O)[C@H]3COC(=O)[C@H]23)OCO4)cc(OC)c1O (some centres not stated)
11.3

Data request, read-out growth inhibition, for Cc1cc(C)c(N2C(=O)CC(Sc3ccccc3N)C2=O)c(C)c1 (configuration not stated)
6.4

Data request, read-out growth inhibition, for "O=Nc1ccc(Nc2ccccc2)cc1"
86.3

Data request, read-out growth inhibition, for "Cc1ccc2c(ccc(/C=C/c3ccc(O)c4ncccc34)[n+]2C)c1"
84

Data request, read-out growth inhibition, for "CNc1nc(C)nc2c1cnn2-c1ccc([N+](=O)[O-])cc1"
2

Data request, read-out growth inhibition, for CC1C(C#N)(C#N)C(C#N)=C(N)C1(Cl)[N+](=O)[O-] (configuration not stated)
65.8

Data request, read-out growth inhibition, for "CCOC(=O)C1=C(C)NC(C)=C(C(=O)OCC)C1c1ccc(C)cc1"
90

Data request, read-out growth inhibition, for "COc1ccc2oc(-c3ccc(Cl)cc3)c(N3CCN(C)CC3)c2c1"
99.5

Data request, read-out growth inhibition, for "O=C(N/N=C\c1c(Cl)cccc1Cl)N/N=C/c1c(Cl)cccc1Cl"
13.7

###

Answer each item with its documented growth inhibition.
- assay-text: NCI Yeast Anticancer Drug Screen. Data for the rad18 strain (AID 177)
- condition-notes: S. cerevisiae rad18 mutant growth inhibition; at 100.0 µM; active compounds read high
This is part of a sample that, as a whole, favours compounds with a hit. Of some 79,000 tested, about 15% had one in any assay.
Give the number; % is assumed, so skip it.

Data request, read-out growth inhibition, for "Cc1ccc(Nc2n[nH]c(=S)s2)cc1"
94

Data request, read-out growth inhibition, for "OCCN(CCO)c1ccc2c(c1)Cc1ccccc1-2"
90

Data request, read-out growth inhibition, for "Oc1ccc(Br)cc1C=NC1CCCCC1"
97

Data request, read-out growth inhibition, for "COc1ccc(N=N/C(=N\NC(=O)c2cc(Br)ccc2O)c2ccc(N(CCC#N)CCC#N)cc2OC)cc1"
49

Data request, read-out growth inhibition, for "CCCCC(=O)c1c(O)nc2sccn2c1=O"
97

Data request, read-out growth inhibition, for CCC(c1ccc(O)cc1)C(CC)c1ccc(OCCN)cc1 (centres undefined)
91

Data request, read-out growth inhibition, for "Cc1ccc(I)cc1N=C=S"
99

Data request, read-out growth inhibition, for "O=C(O)c1[nH]c(=O)c2ccccc2c1Nc1ccccc1"
6

Data request, read-out growth inhibition, for "CSc1s[s+]c(SC)c1-c1ccccc1"
73

Data request, read-out growth inhibition, for "Cc1ccc2occ/c(=N\Nc3ccccc3)c2c1"
64

Data request, read-out growth inhibition, for "O=C1c2cccc3cc([N+](=O)[O-])cc(c23)C(=O)N1CCN1CCCC1"
73

Data request, read-out growth inhibition, for "O=C(NCCCCCN1CCC2(CCCCC2)CC1)C(C1CCCCC1)C1CCCCC1"
98

Data request, read-out growth inhibition, for CCCCCCCCCCCCCC(=O)OC(C)CCC1CCCO1 (centres undefined)
-5

Data request, read-out growth inhibition, for "C/C(=N\NC(=S)NNC(=S)N(C)c1ccccc1)c1ccccn1"
83

Data request, read-out growth inhibition, for O=C1C(Cl)=C(Cl)C(Cl)(Cl)C(Cl)C1(Cl)Cl (centres undefined)
99

Data request, read-out growth inhibition, for "CCOC(=O)[C@]1(Br)CC[C@@]1(Br)C(=O)OCC"
99

Data request, read-out growth inhibition, for "N#C/C(=C/c1c(Cl)cccc1Cl)C(N)=O"
97

Data request, read-out growth inhibition, for "COC(=O)c1cccc(C)c1C(=O)c1c(C)cc(C)cc1C"
67

Data request, read-out growth inhibition, for COc1cc([C@@H]2c3cc4c(cc3[C@@H](OC3OC5COC(C)OC5C(O)C3O)[C@H]3COC(=O)[C@H]23)OCO4)cc(OC)c1O (some centres undefined)
18

Data request, read-out growth inhibition, for "CN(N=O)c1ccc(/C=C/c2ccnc3ccccc23)cc1"
91

Data request, read-out growth inhibition, for "NC(N)=N/N=C/c1cc(Cl)cc(Cl)c1O"
95

Data request, read-out growth inhibition, for "O=C(Nc1ccc2c(c1)Cc1c-2ccc([N+](=O)[O-])c1F)C(F)(F)F"
9

Data request, read-out growth inhibition, for "CCCCCC(=O)c1ccc(O)cc1O"
98

Data request, read-out growth inhibition, for "Nc1ccc2c(=S)c3ccccc3[nH]c2c1"
67

Data request, read-out growth inhibition, for "CCc1nc(N)nc(N)c1-c1ccc(NCCCCCCN)c([N+](=O)[O-])c1"
-23

Data request, read-out growth inhibition, for "O=NN(CCCl)C(=O)NC1CCCCC1"
53

Data request, read-out growth inhibition, for "COc1ccc(N)c2c1C(=O)c1ccccc1C2=O"
93

Data request, read-out growth inhibition, for "CCCCCCCCCCCCCCCCCCNC(=S)/N=C\C1=C(O)c2ccccc2C1=O"
26

Data request, read-out growth inhibition, for "O=Nn1c2ccccc2c2ccccc21"
86

Data request, read-out growth inhibition, for CC1C(C#N)(C#N)C(C#N)=C(N)C1(Cl)[N+](=O)[O-] (centres undefined)
87

Data request, read-out growth inhibition, for "O=C1c2ccccc2CCC1(Br)Br"
99

Data request, read-out growth inhibition, for "CN(C)CCNc1cccc2sc3ccc(O)cc3c(=O)c12"
5

Data request, read-out growth inhibition, for "COC(=O)CSc1nnc(CSc2ccc(Cl)cc2)n1-c1ccccc1"
9

Data request, read-out growth inhibition, for "NCc1c(O)ccc2ccccc12"
99

Data request, read-out growth inhibition, for "CCCCCC#CCOC(=O)C(=[N+]=[N-])P(=O)(c1ccccc1)c1ccccc1"
96

Data request, read-out growth inhibition, for "CNc1ccc(Cc2c[nH]c3ccccc23)cc1"
20

Data request, read-out growth inhibition, for "O=Nn1c2ccccc2c2cc([N+](=O)[O-])ccc21"
93

Data request, read-out growth inhibition, for "N#Cc1sc2c(c1OC(=O)c1ccco1)c(=O)n(-c1ccccc1)c(=S)n2-c1ccccc1"
-1

Data request, read-out growth inhibition, for "CCc1[nH]nc(C(N)=O)c1N=NN(C)C"
96

Data request, read-out growth inhibition, for CC1CCC2(C(=O)O)CCC3(C)C(=CCC4C5(C)CC(O)C(O)C(C)(CO)C5C(O)CC43C)C2C1C (centres undefined)
87

Data request, read-out growth inhibition, for "Oc1ccc(C=Nc2ccccc2O)cc1"
85

Data request, read-out growth inhibition, for "Clc1cc(Cc2ccc(N=C/C=C/c3ccccc3)c(Cl)c2)ccc1N=C/C=C\c1ccccc1"
24

Data request, read-out growth inhibition, for "O=C1C=CC(=O)N1c1ccc2c(c1)OCO2"
99

Data request, read-out growth inhibition, for "CCCCCCCCCCCCCCCCNC(=O)/C(=C\c1ccc(Cl)c(Cl)c1)NC(=O)c1ccccc1"
67

Data request, read-out growth inhibition, for "Clc1cc(-c2ccccc2)nc2ccccc12"
91

Data request, read-out growth inhibition, for "Cc1ccc(N=Nc2ccc(O)c(C)c2)cc1"
91

Data request, read-out growth inhibition, for "CCC(=O)Oc1ccc(/C=N/NC(N)=S)nc1"
-5

Data request, read-out growth inhibition, for "Cc1onc(-c2ccccc2Cl)c1C1=N/C(=C/c2cc(Cl)cc(Cl)c2O)C(=O)O1"
58

Data request, read-out growth inhibition, for "O=C(NC(=S)Nc1ccccn1)c1ccccc1"
-43
